The measured values listed here are drawn from PubChem BioAssay (NCI).

- Tested on: RXF 393 renal
- protocol: NCI tumour cell line growth inhibition, 48 h; in the data active = GI50 below about 0.43 µM; inactive = the rest
Classes used: TRUE (active), FALSE (inactive)

compound	qualitative-label
C=CCCCCC/C=C\[C@@H](O)C#CC#C/C=C/CO	FALSE
O=C1/C(=C(/c2ccccc2)N2CCOCC2)Cc2ccccc21	FALSE
COc1cc(OC)c(C(=O)/C=C/c2cccc(C(F)(F)F)c2)c(OC)c1	FALSE
O=C(Nc1n[nH]c2cc(-c3ccccc3)ccc12)C1CC1	FALSE
COCC[C@H]1CCC/C=C/[C@@H]2C[C@H](O)C[C@H]2[C@H](O)/C=C/C(=O)O1	TRUE
CCCCC(CC)COC(=O)C[N+](C)(C)CCOC(c1ccccc1)c1ccccc1 (centres undefined)	FALSE
CC1(C)C(=O)/C(=C\c2cccnc2)C[C@]2(C)[C@H]3CC[C@@H]4[C@H]5[C@H](C(=O)/C=C/c6cccnc6)CC[C@]5(C(=O)O)CC[C@@]4(C)[C@]3(C)CC[C@@H]12	FALSE
C/C(=N\Nc1ccc(Cl)cn1)c1ccc2ccccc2n1	FALSE
O=C1c2cccnc2-c2nc(-c3ccc(Cl)cc3)cc3c2c1nc1ccccc13	FALSE
S=c1ssc(N2CCOCC2)c1Cl	FALSE
COc1cc(Cc2nccc3cc(OC)c(OC)cc23)c(C(C)=O)cc1OC	FALSE
NS(=O)(=O)c1ccc(-c2ccc3c(NC(=O)C4CC4)n[nH]c3c2)cc1	FALSE
CCOC(=O)C1CCN(S(=O)(=O)/N=C2/NC(=O)NC2=C(Cl)Cl)CC1	FALSE
CCCC(CCC)NCC(O)c1cc(-c2ccc(C(F)(F)F)cc2)nc(C(F)(F)F)c1 (centres undefined)	FALSE
C=C(C)[C@@H]1CC[C@]2(CO)CC[C@]3(C)[C@H](CC[C@@H]4[C@@]5(C)C=C(C#N)C(=O)C(C)(C)[C@@H]5CC[C@]43C)[C@@H]12	FALSE
Nc1nc(Nc2cccnc2)sc1C(=O)c1ccccc1F	FALSE
Cc1cc2ncnn2cc1Nc1ncc2c(n1)n(C1CCOCC1)c(=O)n2C	FALSE
COc1ccccc1CNCCCN1C(=O)c2ccc3c4c(ccc(c24)C1=O)C(=O)N(CCCNCCNCCCN)C3=O	FALSE
c1ccc(Sc2ccc(Cc3nc4cc5ccccc5cc4[nH]3)cc2)cc1	FALSE

###

- System: HCC-2998 colon
- protocol: NCI tumour cell line growth inhibition, 48 h
# TGI annotations
measured-endpoint: TGI

compound	value-measured
CCOC(=O)Cn1c(=O)ccn(COCCO)c1=O	> 100 µM
O=C(/C=C/c1ccc(Cl)c(Cl)c1)c1ccc2ccccc2c1	> 100 µM
Nc1ccc(Cc2c(N)[nH]c(=O)[nH]c2=O)cc1	> 100 µM
Cc1cc(NS(=O)(=O)c2ccc(Nc3c4ccccc4nc4c(C(=O)N5CCN(CCO)CC5)cccc34)cc2)no1	> 100 µM
CCCC(CCC)NCC(O)c1cc(-c2ccc(C(F)(F)F)cc2)nc(C(F)(F)F)c1 (stereo not given)	3.1 µM

###

# TGI annotations
- System: A549 NSCLC
- protocol: NCI tumour cell line growth inhibition, 48 h
measured-endpoint: TGI

compound	measured-endpoint	value-measured
CC(=O)C1Cn2c(nc3ccccc32)C[Se]1 (centres undefined)	TGI	36.2 µM
Nc1ccccc1C#C/C=C\C#Cc1ccccc1N	TGI	> 100 µM
COc1cc(Cc2nccc3cc(OC)c(OC)cc23)c(C(C)=O)cc1OC	TGI	> 750 µM
Cc1nnc(NS(=O)(=O)c2ccc(N=Nc3cc(N=Nc4ccc(S(=O)(=O)Nc5nnc(C)s5)cc4)c4c(NC(=O)C(Cl)Cl)cccc4c3OC(=O)C(Cl)Cl)cc2)s1 (tested in a mixture with another compound)	TGI	60.2 µM
CCOc1ncn(-c2ccc(NC(=S)NC3OC(CO)C(O)C(O)C3O)cc2)n1 (centres undefined)	TGI	> 100 µM
CC1(C)C[C@@H]2C1CCC1(C)CC2(O)CC[C@H]1O (some centres undefined)	TGI	> 100 µM
O=C(Nc1ccccc1-c1nc2ccccc2[nH]c1=O)c1ccccc1	TGI	69.9 µM
COC(=O)Nc1nc2ccc(C3(c4ccc(F)cc4)OCCO3)cc2[nH]1	TGI	> 100 µM
Nc1nc([O-])c2c(n1)[n+](C1OC(CO)C(O)C1O)cn2CCO (centres undefined)	TGI	> 100 µM

###

- System: M19-MEL melanoma
- protocol: NCI tumour cell line growth inhibition, 48 h

compound	target-of-assay	TGI
COC(=O)C(CC(=O)Nc1ccc(C)cc1)C(=O)C(=O)Nc1c(C(C)C)cccc1C(C)C (stereo unspecified)	M19-MEL melanoma	> 100 µM
CCOC(=O)C1SC(=Nc2ccc(C)c(C)c2)N=C1C (stereo unspecified)	M19-MEL melanoma	> 100 µM
O=C(Nc1ccccc1-c1nc2ccccc2[nH]c1=O)c1ccccc1	M19-MEL melanoma	91.2 µM
O=Cc1ccccc1COC(=O)c1cc(C(=O)OCc2ccccc2C=O)c(C(=O)OCc2ccccc2C=O)cc1C(=O)OCc1ccccc1C=O	M19-MEL melanoma	> 100 µM
O=C(/C=C/c1ccc(Cl)c(Cl)c1)c1ccc2ccccc2c1	M19-MEL melanoma	> 100 µM
CCOC(=O)CNC(=O)N(CC)C12CC3CC(CC(C3)C1)C2	M19-MEL melanoma	380 µM
CCOC(=O)C(=O)Nc1ccccc1CC	M19-MEL melanoma	> 100 µM
O=C(CC(=O)n1nc(-c2ccccc2)c(N=Nc2ccc(Cl)cc2)c1-c1ccccc1)Nc1ccc(Cl)cc1	M19-MEL melanoma	> 76.2 µM
O=c1cc(-c2ccc(Oc3ccccc3)cc2)[nH]c2cc3c(cc12)OCO3	M19-MEL melanoma	> 100 µM
COc1ccc(CN2CC(C)(C)C2=O)c(OC)c1	M19-MEL melanoma	> 100 µM
O=C1c2ccccc2C(=O)C1(O)c1c[nH]c2ccccc12	M19-MEL melanoma	> 100 µM
CCCCCCCCCCCC(=O)OCC(C[As](=O)(O)O)OC(=O)CCCCCCCCCCC (stereo unspecified)	M19-MEL melanoma	15.8 µM
O=C(Nc1cc(Cl)c(Cl)cc1Cl)C(=O)C1C(=O)NC(=S)NC1=O	M19-MEL melanoma	> 100 µM
Nc1nc([O-])c2c(n1)[n+](C1OC(CO)C(O)C1O)cn2CCO (stereo unspecified)	M19-MEL melanoma	> 100 µM
O=C(O)CNS(=O)(=O)c1ccc(NC(=O)c2ccc([N+](=O)[O-])cc2)cc1	M19-MEL melanoma	> 100 µM
CC(=O)O[C@H]1C(=O)[C@@]2(C)C(C(OC(=O)c3ccccc3)[C@]3(O)CC(OC(=O)C(O)C(NC(=O)c4ccc(C(F)(F)F)cc4)c4ccccc4)C(C)=C1C3(C)C)[C@]1(OC(C)=O)CO[C@@H]1C[C@@H]2O (stereo partly specified)	M19-MEL melanoma	0.271 µM
CC1=[N+]([O-])c2ccccc2C(=O)C1=O	M19-MEL melanoma	> 100 µM
CCCN(CCC)C(=O)c1c([N+](=O)[O-])cc(C(F)(F)F)cc1[N+](=O)[O-]	M19-MEL melanoma	27 µM
COc1ccc(S(=O)(=O)c2ccccc2[N+](=O)[O-])cc1	M19-MEL melanoma	> 100 µM
COc1cc(/C=C/c2ccc(OC)c(O)c2)cc(OC)c1	M19-MEL melanoma	30.9 µM
CN(C)CC1CCCC(CN(C)C)C1OC(=O)c1ccccc1 (stereo unspecified)	M19-MEL melanoma	> 100 µM

###

# TGI annotations
- Tested on: PC-3 prostate
- protocol: NCI tumour cell line growth inhibition, 48 h

compound	TGI
C[C@@H]1Nc2cc(NC(=O)OCCF)nc(N)c2N=C1c1ccccc1	> 100 µM
C=C1C(=O)O[C@H]2[C@H]1CC/C(COC(=O)NCCCCNC(=O)OC/C1=C/CC[C@@]3(C)O[C@H]3[C@H]3OC(=O)C(=C)[C@@H]3CC1)=C\CC[C@@]1(C)O[C@@H]21	8.05 µM
N#Cc1[nH]c(=O)n(-c2ccccc2)c1N	> 10 µM
CN1CCc2nc(N)nc(-c3nc(N)nc4c3CN(C)CC4)c2C1	> 100 µM
Nc1nc(-c2ccccc2)cc(-c2ccc(OCc3ccccc3)cc2O)n1	> 100 µM
CC1(C)C[C@@H]2C1CCC1(C)CC2(O)CC[C@H]1O (stereo not given in full)	> 100 µM
CC(CC[C@@]1(C)C(=O)CCC2O[C@]21C)[C@H]1C[C@@H](c2ccoc2)OC1=O (stereo not given in full)	> 100 µM
Cc1ccc([N+](=O)[O-])c2c(NCCC[N+](C)(C)[O-])c3ccccc3nc12	4.41 µM
COCC[C@H]1CCC/C=C/[C@@H]2C[C@H](O)C[C@H]2[C@H](O)/C=C/C(=O)O1	> 100 µM
CCN1CCN(c2nc3ccccc3c3c2CCOc2ccccc2-3)CC1	> 90.9 µM
CC1(C)/C(=C/N=O)N(O)C(C)(C)N1O	> 100 µM
O=c1cc(NCC(O)CN2CCCC2)n(Cc2ccccc2)c(=O)n1Cc1ccccc1 (stereo not given)	84.1 µM
COc1cc(OC)c2c(C)cc(=O)oc2c1	> 100 µM
CCNCCNc1cc(-c2ccc(C(F)(F)F)cc2)c(C#N)c2nc3ccccc3n12	2.95 µM
Cc1cc(C(=O)Nc2ccc3cc(CN4CCOCC4)ccc3n2)c(C)n1-c1ccccc1	6.69 µM
CC1=CC(=O)C=CC1=O	39.4 µM
COc1ccc(C(=O)c2cc(C)c(OC)c(C)c2)cc1OC(=O)CCl	> 100 µM
C1=Cc2cc3c(c4nccc(c24)N1)OCO3	> 100 µM
COCc1nc2c(OC)c(-c3nc4nc(N5CCN(C)CC5)ccc4[nH]3)cc(OC)c2n1C	63.4 µM
CCOC(=O)Cn1c(=O)ccn(COCCO)c1=O	> 100 µM
C=C(C)[C@@H]1CC[C@]2(CO)CC[C@]3(C)[C@H](CC[C@@H]4[C@@]5(C)C=C(C#N)C(=O)C(C)(C)[C@@H]5CC[C@]43C)[C@@H]12	5.42 µM
NC(=O)c1cc(Cl)ccc1NC(=O)/C=C/c1ccccc1	> 100 µM
CO/C=C(/C(=O)OC)c1ccccc1COc1cccc(C(F)(F)F)c1	> 100 µM
N#C[C@@H](c1ccccn1)c1ncccc1[N+](=O)[O-]	> 100 µM
N#Cc1c(-c2ccccc2)[nH]c2ccc(Cl)cc2c1=O	> 100 µM
COc1ccc(/C=C/c2c(C(=O)/C=C/c3ccccc3)c(C)nc3ccccc23)cc1	3.81 µM
CCOC(C)O[C@H]1C(=O)OCC1(C)C (stereo not given in full)	> 100 µM
COc1ccc(-c2nc3ccccn3c2/C=C/C(=O)c2cc(OC)c(OC)c(OC)c2)cc1OC	> 100 µM
CC1S/C(=N\N=C2/C(=O)Nc3ccc(Br)cc32)N(C2CCCCC2)C1=O (stereo not given)	19.9 µM
NS(=O)(=O)c1ccc(-c2ccc3c(NC(=O)C4CC4)n[nH]c3c2)cc1	> 25 µM
